Listed here are molecules together with their documented Relative to Control Group (%) (luciferase activity).
TARGET DESC: PPARα (Homo sapiens)
Construct: expressed in transfected cells; host or cells: HaCaT (human keratinocyte cell line), transiently transfected
Sequence (Q07869 whole entry, species assumed): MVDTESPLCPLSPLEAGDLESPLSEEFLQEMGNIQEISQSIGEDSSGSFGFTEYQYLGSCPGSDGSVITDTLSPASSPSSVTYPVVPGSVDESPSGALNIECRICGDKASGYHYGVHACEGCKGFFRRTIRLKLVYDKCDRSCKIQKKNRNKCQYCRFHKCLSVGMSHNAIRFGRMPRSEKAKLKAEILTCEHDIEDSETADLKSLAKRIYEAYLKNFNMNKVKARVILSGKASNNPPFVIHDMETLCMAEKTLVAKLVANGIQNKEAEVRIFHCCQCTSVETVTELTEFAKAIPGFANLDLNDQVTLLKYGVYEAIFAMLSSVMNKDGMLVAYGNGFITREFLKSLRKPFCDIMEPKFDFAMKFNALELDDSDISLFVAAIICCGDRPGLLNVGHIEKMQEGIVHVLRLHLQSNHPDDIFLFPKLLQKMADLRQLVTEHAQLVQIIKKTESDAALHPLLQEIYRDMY
ASSAY: PPARα activation of single ceramide derivatives, PPRE-luciferase reporter in transfected HaCaT cells (Test Example 1)
Type: cell-based
CONDITION INFO: 10 ppm, 24 hours, HaCaT transfected with PPRE reporter and PPARα plasmids; DMSO control = 100
QUANTITY NAME: Relative to Control Group (%) (luciferase activity)

INSERT INTO measurements (molecule, target_desc, unit_string, observed_result) VALUES
  ('CCCCCCCCCCCCCCCCN(CC(C)(C)OP(=O)([O-])[O-])C(=O)CCCCCCCCCCCCCCC.[Na+].[Na+] [Reference Example 3-12]', 'PPARα (Homo sapiens)', '%', 270),
  ('CCCCCCCCCCCCCCCCN(CC(C)OP(=O)([O-])[O-])C(=O)CCCCCCCCCCCCCCC.[Na+].[Na+] (stereo not drawn) [Reference Example 3-11]', 'PPARα (Homo sapiens)', '%', 272),
  ('CCCCCCCCCCCC(=O)N(CCO)CC(O)CN(CCO)C(=O)CCCCCCCCCCC [Reference Example 2-2]', 'PPARα (Homo sapiens)', '%', 270),
  ('CCCCCCCCCCCCCCCC(=O)N(CCO)CC(O)CNCCO (stereo not drawn) [Reference Example 2-4]', 'PPARα (Homo sapiens)', '%', 260),
  ('CCCCCCCC/C=C\CCCCCCCC(=O)N(CCO)CC(O)CN(CCO)C(=O)CCCCCCC/C=C\CCCCCCCC [Reference Example 2-3]', 'PPARα (Homo sapiens)', '%', 255),
  ('CCCCCCCCCCCCCCCC(=O)N(CCO)CC(O)CN(CCO)C(=O)CCCCCCCCCCCCCCC [Reference Example 2-1]', 'PPARα (Homo sapiens)', '%', 263),
  ('CCCCCCCC/C=C\CCCCCCCCN(CC(C)OS(=O)(=O)[O-])C(=O)CCCCCCCCCCCCCCC.[Na+] (stereo not drawn) [Reference Example 3-14]', 'PPARα (Homo sapiens)', '%', 278),
  ('CCCCCCCCCCCCCCCCN(CCOCCOP(=O)([O-])O)C(=O)CCCCCCCCCCCCCCC.[Na+] [Reference Example 3-13]', 'PPARα (Homo sapiens)', '%', 259),
  ('CCCCCCCC/C=C\CCCCCCCCN(CC(C)(C)OS(=O)(=O)[O-])C(=O)CCCCCCCCCCCCCCC.[Na+] [Reference Example 3-15]', 'PPARα (Homo sapiens)', '%', 269);
